src = patent US20110250135A1

Assay: Biodistribution: organ distribution of F-18 signal in mice
Type: in vivo, male NMRI mice
Conditions: fat, 5 min post i.v. injection
Here the recorded Organ distribution of F-18 signal, fat is given for each entry.
Assay endpoint: Organ distribution of F-18 signal, fat (% ID/g)

Molecule: O=C(NCC(=O)N1CCN(c2ccc(OCc3ccccc3)cn2)CC1)c1ccnc([18F])c1 [Example 14f]
Result value: 2.17
//
Molecule: O=C(NCC(=O)N1CCN(c2ccc(OCc3ccccc3)cc2)CC1)c1cccc(OCC[18F])c1 [Example 3g]
Result value: 2.44
//
Molecule: O=C(NCC(=O)N1CCN(c2ccc(OCc3ccccc3)cc2)CC1)c1ccnc([18F])c1 [Example 11c]
Result value: 1.84
//
Molecule: O=C(NCC(=O)N1CCN(c2ccc(OCc3ccccc3)cc2)CC1)c1cccnc1[18F] [Example 12c]
Result value: 1.92
//
Molecule: O=C(NCC(=O)N1CCN(c2ccc(OCc3ccccc3)cc2)CC1)c1ccc([18F])nc1 [Example 10e]
Result value: 2.66

###

Below, each entry is listed alongside its reported Organ distribution of F-18 signal, heart.
Assay: Biodistribution: organ distribution of F-18 signal in mice
Format: in vivo, male NMRI mice
Details: heart, 2 min post i.v. injection
Assay endpoint: Organ distribution of F-18 signal, heart

Compound: O=C(NCC(=O)N1CCN(c2ccc(OCc3ccccc3)cc2)CC1)c1ccc([18F])nc1 [Example 10e]
Assay endpoint: Organ distribution of F-18 signal, heart
Result value: 5.18 % ID/g
--
Compound: O=C(NCC(=O)N1CCN(c2ccc(OCc3ccccc3)cc2)CC1)c1ccnc([18F])c1 [Example 11c]
Assay endpoint: Organ distribution of F-18 signal, heart
Result value: 4.68 % ID/g
--
Compound: O=C(NCC(=O)N1CCN(c2ccc(OCc3ccccc3)cn2)CC1)c1ccnc([18F])c1 [Example 14f]
Assay endpoint: Organ distribution of F-18 signal, heart
Result value: 3.67 % ID/g
--
Compound: O=C(NCC(=O)N1CCN(c2ccc(OCc3ccccc3)cc2)CC1)c1cccc(OCC[18F])c1
Assay endpoint: Organ distribution of F-18 signal, heart
Result value: 15.57 % ID/g
--
Compound: O=C(NCC(=O)N1CCN(c2ccc(OCc3ccccc3)cc2)CC1)c1cccnc1[18F] [Example 12c]
Assay endpoint: Organ distribution of F-18 signal, heart
Result value: 4.76 % ID/g

###

Assay: Biodistribution: organ distribution of F-18 signal in mice
Assay type: in vivo, male NMRI mice
Conditions: adrenals, 5 min post i.v. injection
Assay endpoint: Organ distribution of F-18 signal, adrenals (% ID/g)

Molecule: O=C(NCC(=O)N1CCN(c2ccc(OCc3ccccc3)cc2)CC1)c1ccc([18F])nc1 [Example 10e]
Result value: 6.20
//
Molecule: O=C(NCC(=O)N1CCN(c2ccc(OCc3ccccc3)cc2)CC1)c1cccc(OCC[18F])c1 [Example 3g]
Result value: 10.67
//
Molecule: O=C(NCC(=O)N1CCN(c2ccc(OCc3ccccc3)cc2)CC1)c1cccnc1[18F] [Example 12c]
Result value: 10.38
//
Molecule: O=C(NCC(=O)N1CCN(c2ccc(OCc3ccccc3)cc2)CC1)c1ccnc([18F])c1 [Example 11c]
Result value: 5.60
//
Molecule: O=C(NCC(=O)N1CCN(c2ccc(OCc3ccccc3)cn2)CC1)c1ccnc([18F])c1 [Example 14f]
Result value: 6.14

###

Assay: Biodistribution: organ distribution of F-18 signal in mice
Assay type: in vivo, male NMRI mice
Conditions: spleen, 60 min post i.v. injection
Assay endpoint: Organ distribution of F-18 signal, spleen (% ID/g)

Compound: O=C(NCC(=O)N1CCN(c2ccc(OCc3ccccc3)cc2)CC1)c1ccc([18F])nc1 [Example 10e]
Result value: 0.35

Compound: O=C(NCC(=O)N1CCN(c2ccc(OCc3ccccc3)cn2)CC1)c1ccnc([18F])c1 [Example 14f]
Result value: 0.12

Compound: O=C(NCC(=O)N1CCN(c2ccc(OCc3ccccc3)cc2)CC1)c1cccnc1[18F] [Example 12c]
Result value: 0.42

Compound: O=C(NCC(=O)N1CCN(c2ccc(OCc3ccccc3)cc2)CC1)c1cccc(OCC[18F])c1 [Example 3g]
Result value: 0.86

Compound: O=C(NCC(=O)N1CCN(c2ccc(OCc3ccccc3)cc2)CC1)c1ccnc([18F])c1 [Example 11c]
Result value: 0.37

###

Test: Biodistribution: organ distribution of F-18 signal in mice
Format: in vivo, male NMRI mice
Details: blood, 240 min post i.v. injection

Compound: O=C(NCC(=O)N1CCN(c2ccc(OCc3ccccc3)cc2)CC1)c1ccnc([18F])c1 [Example 11c]
U: % ID/g
Organ distribution of F-18 signal, blood: 0.12
--
Compound: O=C(NCC(=O)N1CCN(c2ccc(OCc3ccccc3)cc2)CC1)c1cccnc1[18F] [Example 12c]
U: % ID/g
Organ distribution of F-18 signal, blood: 0.09
--
Compound: O=C(NCC(=O)N1CCN(c2ccc(OCc3ccccc3)cc2)CC1)c1cccc(OCC[18F])c1
U: % ID/g
Organ distribution of F-18 signal, blood: 0.57
--
Compound: O=C(NCC(=O)N1CCN(c2ccc(OCc3ccccc3)cn2)CC1)c1ccnc([18F])c1 [Example 14f]
U: % ID/g
Organ distribution of F-18 signal, blood: 0.08
--
Compound: O=C(NCC(=O)N1CCN(c2ccc(OCc3ccccc3)cc2)CC1)c1ccc([18F])nc1 [Example 10e]
U: % ID/g
Organ distribution of F-18 signal, blood: 0.09

###

Assay: Biodistribution: organ distribution of F-18 signal in mice
Format: in vivo, male NMRI mice
Conditions: liver, 5 min post i.v. injection

Compound: O=C(NCC(=O)N1CCN(c2ccc(OCc3ccccc3)cc2)CC1)c1ccc([18F])nc1 [Example 10e]
U: % ID/g
Organ distribution of F-18 signal, liver: 12.02
//
Compound: O=C(NCC(=O)N1CCN(c2ccc(OCc3ccccc3)cn2)CC1)c1ccnc([18F])c1 [Example 14f]
U: % ID/g
Organ distribution of F-18 signal, liver: 13.46
//
Compound: O=C(NCC(=O)N1CCN(c2ccc(OCc3ccccc3)cc2)CC1)c1ccnc([18F])c1 [Example 11c]
U: % ID/g
Organ distribution of F-18 signal, liver: 12.14
//
Compound: O=C(NCC(=O)N1CCN(c2ccc(OCc3ccccc3)cc2)CC1)c1cccnc1[18F] [Example 12c]
U: % ID/g
Organ distribution of F-18 signal, liver: 8.93
//
Compound: O=C(NCC(=O)N1CCN(c2ccc(OCc3ccccc3)cc2)CC1)c1cccc(OCC[18F])c1
U: % ID/g
Organ distribution of F-18 signal, liver: 13.36

###

Test: Biodistribution: organ distribution of F-18 signal in mice
Assay type: in vivo, male NMRI mice
Conditions: intestine (with content), 30 min post i.v. injection
Assay endpoint: Organ distribution of F-18 signal, intestine (% ID/g)

Compound: O=C(NCC(=O)N1CCN(c2ccc(OCc3ccccc3)cc2)CC1)c1cccc(OCC[18F])c1 [Example 3g]
Result value: 4.58
//
Compound: O=C(NCC(=O)N1CCN(c2ccc(OCc3ccccc3)cn2)CC1)c1ccnc([18F])c1 [Example 14f]
Result value: 11.37
//
Compound: O=C(NCC(=O)N1CCN(c2ccc(OCc3ccccc3)cc2)CC1)c1cccnc1[18F] [Example 12c]
Result value: 6.62
//
Compound: O=C(NCC(=O)N1CCN(c2ccc(OCc3ccccc3)cc2)CC1)c1ccc([18F])nc1 [Example 10e]
Result value: 8.20
//
Compound: O=C(NCC(=O)N1CCN(c2ccc(OCc3ccccc3)cc2)CC1)c1ccnc([18F])c1 [Example 11c]
Result value: 10.01

###

Assay: Biodistribution: organ distribution of F-18 signal in mice
Assay type: in vivo, male NMRI mice
Conditions: pancreas, 5 min post i.v. injection
Listed here are molecules together with their documented Organ distribution of F-18 signal, pancreas.
Assay endpoint: Organ distribution of F-18 signal, pancreas (% ID/g)

Molecule: O=C(NCC(=O)N1CCN(c2ccc(OCc3ccccc3)cc2)CC1)c1cccnc1[18F] [Example 12c]
U: % ID/g
Result value: 4.30
//
Molecule: O=C(NCC(=O)N1CCN(c2ccc(OCc3ccccc3)cc2)CC1)c1cccc(OCC[18F])c1 [Example 3g]
U: % ID/g
Result value: 4.26
//
Molecule: O=C(NCC(=O)N1CCN(c2ccc(OCc3ccccc3)cn2)CC1)c1ccnc([18F])c1 [Example 14f]
U: % ID/g
Result value: 4.49
//
Molecule: O=C(NCC(=O)N1CCN(c2ccc(OCc3ccccc3)cc2)CC1)c1ccnc([18F])c1 [Example 11c]
U: % ID/g
Result value: 3.97
//
Molecule: O=C(NCC(=O)N1CCN(c2ccc(OCc3ccccc3)cc2)CC1)c1ccc([18F])nc1 [Example 10e]
U: % ID/g
Result value: 4.54

###

# Organ distribution of F-18 signal, fat listing for each entry below
Assay: Biodistribution: organ distribution of F-18 signal in mice
Assay type: in vivo, male NMRI mice
Details: fat, 60 min post i.v. injection

Molecule: O=C(NCC(=O)N1CCN(c2ccc(OCc3ccccc3)cn2)CC1)c1ccnc([18F])c1 [Example 14f]
U: % ID/g
Organ distribution of F-18 signal, fat: 0.59
//
Molecule: O=C(NCC(=O)N1CCN(c2ccc(OCc3ccccc3)cc2)CC1)c1ccc([18F])nc1 [Example 10e]
U: % ID/g
Organ distribution of F-18 signal, fat: 0.67
//
Molecule: O=C(NCC(=O)N1CCN(c2ccc(OCc3ccccc3)cc2)CC1)c1cccc(OCC[18F])c1 [Example 3g]
U: % ID/g
Organ distribution of F-18 signal, fat: 2.38
//
Molecule: O=C(NCC(=O)N1CCN(c2ccc(OCc3ccccc3)cc2)CC1)c1cccnc1[18F] [Example 12c]
U: % ID/g
Organ distribution of F-18 signal, fat: 1.29
//
Molecule: O=C(NCC(=O)N1CCN(c2ccc(OCc3ccccc3)cc2)CC1)c1ccnc([18F])c1 [Example 11c]
U: % ID/g
Organ distribution of F-18 signal, fat: 0.80
